ASSAYED SYSTEM: T1, TNF-beta (human, UniProt P01374 35-205)
T1 construct: also called TNFβ; Tumour Necrosis Factor-beta
T1 sequence (looked up): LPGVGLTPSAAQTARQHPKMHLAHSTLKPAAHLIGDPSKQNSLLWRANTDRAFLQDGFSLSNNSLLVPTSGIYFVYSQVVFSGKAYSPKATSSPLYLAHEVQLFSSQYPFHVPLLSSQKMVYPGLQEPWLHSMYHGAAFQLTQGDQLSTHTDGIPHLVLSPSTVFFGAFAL
TEST DESCRIPTION: phage ELISA
MEASUREMENT LABEL: binding result

{"BINDER": "I003C06 (scFv) scFv: QVQLVQSGAEVKKPGSSVKVSCRASGGSFNHAISWVRQAPGRGLEWMGGILPMYGTANYAQKFQGRVTITADKLTNTVYMDLSRLRYEDTAVYYCARELGLSIVGATTGALDMWGKGTLVTVSSGGGGSGGGGSGGGGSALPVLTQPPSVSVAPGQTATLTCGGTNFGRQSVHWYQQKPGQAPVLAIYHDDVRPSGIPERLSGSKSGNTATLTISRVEAGDEAAYYCQVWDSGSDVVVFGGGTKLTVLG", "RECORDED RESULT": "no binding"}
{"BINDER": "I050A12 (scFv) scFv: EVQLVQSGAEVKKPGSSVKVSCKASGDTFSHYAINWVRQAPGQGLEWMGGIIPTFNAVKYAQKFQGRATITADGSTSTAYMELNSLRSEDTAVYYCATAPYDLLTHYFHYFDYWGQGTMVTVSSGGGGSGGGGSGGGGSALSSELTQDPAVSVTLGQTVRITCQGDSLRSYYPSWYQQKPGQAPVLVIYPKNIRPSGIPDRFSGSSSGNTASLTITGAQAEDEADYYCNSRASSGNHYVFATGTKLTVLG", "RECORDED RESULT": "no binding"}
{"BINDER": "I008B01 (scFv) scFv: QVQLVQSGAEVMKPGASVKVSCKASGYNFNNYAMQWVRQAPGQRLEWMGWIVPGNGKTKYSQKFQDRVTIARDTSASTVYMELSSLTSEDTAMYYCARATYDPLTGYSFDGFDIWGQGTTVTVSSGGGGSGGGGSGGGGSQSVLTQPASVSGSPGQSITISCTGTSSDVGGYNYVSWYQQHPGKAPKLMIYEGSKRPSGVSNRFSGSKSGNTASLTISGLQAEDEADYYCSSYTTRSTRVFGGGTKLTVLG", "RECORDED RESULT": "no binding"}
